System: Ctenocephalides felis
Test: Ctenocephalides felis oral test
Type: in vivo
Conditions: application rate 100 ppm in citrated cattle blood; after 2 days
Measured efficacy (kill in %), listed per entry.

COMPOUND	efficacy (kill in %)
CON(C)CCOc1cnc(COc2ccc(F)c(-c3cccc(F)c3)c2)c(F)c1 [Example 55]	90
CON(C)CCOc1cnc(COc2ccc(Cl)c(OC(F)(F)F)c2)c(F)c1 [Example 72]	95
CON(C)CCOc1cnc(COc2ccc(Cl)c(-c3cccc(F)c3)c2)c(F)c1 [Example 61]	90
CON(C)CCOc1cnc(COc2cccc3c(Cl)c(Cl)ccc23)c(F)c1 [Example 22]	90
CC(=O)N1CCC(Oc2ccc(COc3ccc(Cl)c4ccccc34)cn2)C1 (centres unmarked) [Example 4]	100

###

Tested on: cattle ticks (Boophilus microplus) Parkhurst strain, SP-resistant
Test: Boophilus microplus dip test
Assay type: in vivo
Settings: application rate 100 ppm, after 7 days

SMI	efficacy (laying of fertile eggs)
CCOc1cc(OCc2ncc(OCCN(C)OC)cc2F)ccc1Cl	100%
CON(C)CCOc1cnc(COc2ccc3sc4ccccc4c3c2)c(F)c1	80%
CON(C)CCOc1cnc(COc2ccc(Cl)c3ccccc23)nc1	100%
COc1cc(OCc2ncc(OCCN(C)OC)cc2F)ccc1Br	100%
CON(C)CCOc1cnc(COc2ccc(Cl)c3ccccc23)c(F)c1	100%
CON(C)CCOc1cnc(COc2ccc(F)c(-c3cccc(F)c3)c2)c(F)c1	90%
CON(C)CCOc1ccc(COc2cccc3c(Cl)c(Cl)ccc23)nc1	95%
COc1cc(OCc2ncc(OCCN(C)OC)cc2F)ccc1Cl	95%

###

Parameter: efficacy (kill in %). Scope: all listed entries.
Tested on: Ctenocephalides felis
Assay: Ctenocephalides felis oral test
Type: in vivo
Conditions: application rate 100 ppm in citrated cattle blood; after 2 days

MOLECULE	efficacy (kill in %)
CON(C)CCOc1cnc(COc2ccc3oc4ccccc4c3c2)c(F)c1 [Example 20]	95
CON(C)CCOc1cnc(COc2ccc(Cl)c(-c3ccccc3)c2)c(F)c1 [Example 63]	95
CON(C)CCOc1cnc(COc2ccc(Br)c3ccccc23)c(F)c1 [Example 21]	80
CON(C)CCOc1ccc(COc2ccc(Cl)c3ccccc23)cn1 [Example 2]	80
CON(C)CCOc1cnc(COc2ccc(Cl)c3ccccc23)c(F)c1 [Example 19]	80
CN(CC#N)CCOc1cnc(COc2ccc3oc4ccccc4c3c2)c(F)c1 [Example 29]	100
